System: T1, human CCR8 (human, UniProt P51685 1-355)
T1 construct: Native CCR8 on human PBMC (CCR8+ CD3+ or CCR8+ CD4+ lymphocytes); also called chemokine (C-C motif) receptor 8
T1 sequence (P51685 whole entry): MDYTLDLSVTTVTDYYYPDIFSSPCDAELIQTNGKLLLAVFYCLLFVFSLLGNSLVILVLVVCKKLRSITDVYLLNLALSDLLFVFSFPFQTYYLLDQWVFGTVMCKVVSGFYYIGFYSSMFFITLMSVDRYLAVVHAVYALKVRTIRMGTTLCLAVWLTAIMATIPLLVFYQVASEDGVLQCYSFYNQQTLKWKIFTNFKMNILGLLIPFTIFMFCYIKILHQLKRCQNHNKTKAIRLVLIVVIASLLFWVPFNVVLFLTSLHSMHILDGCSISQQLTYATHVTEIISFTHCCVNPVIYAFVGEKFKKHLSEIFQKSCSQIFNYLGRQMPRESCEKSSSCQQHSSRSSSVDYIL
Method Description: flow blocking, PBMC CCR8+CD3+; competitor PE-AB11
% Blocking by entry:
Value expressed in %; do not type the unit.

AB6 (antibody, V domains shown, Hybridoma monoclonal; Same VH/VL entries as AB5; also called antibody 6; clone 6) VH: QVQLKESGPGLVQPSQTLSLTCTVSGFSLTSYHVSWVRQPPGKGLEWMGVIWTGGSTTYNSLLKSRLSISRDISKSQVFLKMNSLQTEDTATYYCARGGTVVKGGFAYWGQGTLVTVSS VL: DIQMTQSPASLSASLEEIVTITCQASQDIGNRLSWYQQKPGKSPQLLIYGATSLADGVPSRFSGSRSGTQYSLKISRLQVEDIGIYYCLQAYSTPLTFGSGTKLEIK	-18.3
AB8 (antibody, V domains shown, Hybridoma monoclonal; also called antibody 8; clone 8) VH: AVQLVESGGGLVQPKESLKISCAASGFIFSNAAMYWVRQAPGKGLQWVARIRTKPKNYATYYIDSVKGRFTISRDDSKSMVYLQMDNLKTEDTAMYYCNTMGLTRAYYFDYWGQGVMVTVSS VL: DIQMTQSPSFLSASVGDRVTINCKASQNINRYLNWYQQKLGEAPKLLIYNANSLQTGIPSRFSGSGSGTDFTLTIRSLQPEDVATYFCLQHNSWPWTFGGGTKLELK	45.9
AB13 (antibody, V domains shown, Hybridoma monoclonal; also called antibody 13; clone 13) VH: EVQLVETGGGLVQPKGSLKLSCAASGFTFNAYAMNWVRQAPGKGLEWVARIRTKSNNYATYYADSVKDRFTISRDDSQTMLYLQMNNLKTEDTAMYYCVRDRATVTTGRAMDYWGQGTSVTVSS VL: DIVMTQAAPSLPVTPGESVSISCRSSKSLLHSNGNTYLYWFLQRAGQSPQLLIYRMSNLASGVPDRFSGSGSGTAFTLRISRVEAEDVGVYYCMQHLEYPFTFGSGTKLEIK	5.33
AB10 (antibody, V domains shown, Hybridoma monoclonal; also called antibody 10; clone 10) VH: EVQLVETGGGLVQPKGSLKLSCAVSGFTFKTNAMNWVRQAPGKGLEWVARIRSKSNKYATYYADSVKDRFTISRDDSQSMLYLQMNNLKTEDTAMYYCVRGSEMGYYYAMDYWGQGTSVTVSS VL: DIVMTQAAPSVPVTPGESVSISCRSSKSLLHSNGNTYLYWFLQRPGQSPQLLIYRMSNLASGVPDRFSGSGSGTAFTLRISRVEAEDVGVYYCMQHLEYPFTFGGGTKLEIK	55.2

Task: Data request, read-out % Blocking, for AB5 (antibody, V domains shown, Hybridoma monoclonal; Same VH/VL entries as AB6; also called antibody 5; clone 5) VH: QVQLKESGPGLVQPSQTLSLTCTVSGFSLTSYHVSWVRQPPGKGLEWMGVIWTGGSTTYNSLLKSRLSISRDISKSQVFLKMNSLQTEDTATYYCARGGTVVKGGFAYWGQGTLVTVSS VL: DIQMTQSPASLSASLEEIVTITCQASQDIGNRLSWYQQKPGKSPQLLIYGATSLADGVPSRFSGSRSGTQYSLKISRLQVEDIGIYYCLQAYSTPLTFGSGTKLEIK
Result: -9.7

Task: Thanks! And AB7 (antibody, V domains shown, Hybridoma monoclonal; also called antibody 7; clone 7) VH: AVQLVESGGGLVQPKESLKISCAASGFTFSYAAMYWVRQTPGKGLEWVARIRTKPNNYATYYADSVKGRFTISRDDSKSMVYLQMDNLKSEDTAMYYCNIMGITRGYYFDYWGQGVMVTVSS VL: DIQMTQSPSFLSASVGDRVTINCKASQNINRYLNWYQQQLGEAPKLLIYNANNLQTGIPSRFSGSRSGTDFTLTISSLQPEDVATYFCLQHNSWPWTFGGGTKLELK ?
Result: 53.2

Task: Thanks! And AB11 (antibody, V domains shown, Hybridoma monoclonal; also called antibody 11; clone 11) VH: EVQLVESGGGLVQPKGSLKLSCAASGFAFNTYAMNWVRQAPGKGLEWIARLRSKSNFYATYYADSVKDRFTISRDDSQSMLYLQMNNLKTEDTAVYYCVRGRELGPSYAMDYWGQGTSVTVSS VL: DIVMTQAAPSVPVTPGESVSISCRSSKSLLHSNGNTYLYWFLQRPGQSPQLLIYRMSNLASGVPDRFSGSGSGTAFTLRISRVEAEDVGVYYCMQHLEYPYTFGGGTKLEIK ?
Result: 42.7
